Test: recombinant barcode read abundance after kanamycin selection (control-corrected) (log10(CPM+1)); higher = more efficient recombination; sequences stand for … in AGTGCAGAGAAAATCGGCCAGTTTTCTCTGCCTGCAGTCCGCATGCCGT…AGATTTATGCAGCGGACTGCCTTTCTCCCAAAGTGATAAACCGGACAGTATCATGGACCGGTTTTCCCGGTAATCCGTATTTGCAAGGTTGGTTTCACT; site = the 11-nt target
Answer Not satisfied if recombinant barcode read abundance (log10) is under 0.2, and Satisfied if it is 0.2 or more.

Example cases with answers are listed next.
residues: GAACCACCTTGGGTTCTAACCTGTTGCCT (site TCACCACCTAG)
label.value: Not satisfied
--
residues: CGATACACTTGGGTTCTAACCTGTTGCCG (site CGATCCACTCA)
label.value: Not satisfied

Confirm if recombinant barcode read abundance (log10) reported for the sequence GTCGGAACTTGGGTTCTAACCTGTTGCCT (site GTCGGGACTAG) is 0.2 or above.
Not satisfied

// same read-out, input: TGGACCACTTGGGTTCTAACCTGTTGCCT (site TGGAGCACTAG)
Not satisfied

// same read-out, input: CTAAGCACTTGGGTTCTAACCTGTTGCCG (site CTAAGCACTCG)
Satisfied

// same read-out, input: ACTAGTCCTTGGGTTCTAACCTGTTGCAT (site ACTAGTCCTAA)
Satisfied

// same read-out, input: AGTGAGCCTTGGGTTCTAACCTGTTGCCT (site AGTAAGCCTAG)
Satisfied

// same read-out, input: GCACTAACTTGGGTTCTAACCTGTTGCCT (site GCACTAACTAG)
Satisfied

// same read-out, input: CCGCGGCCTTGGGTTCTAACCTGTTGCCT (site CCGCGGCCTAG)
Satisfied

// same read-out, input: CTTTCCTCTTGGGTTCTAACCTGTTGCCT (site CGTTCCTCTAG)
Not satisfied

---

Assay: recombinant barcode read abundance after kanamycin selection (control-corrected) (log10(CPM+1)); higher = more efficient recombination; sequences stand for … in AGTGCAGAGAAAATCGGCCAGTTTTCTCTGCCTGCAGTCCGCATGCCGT…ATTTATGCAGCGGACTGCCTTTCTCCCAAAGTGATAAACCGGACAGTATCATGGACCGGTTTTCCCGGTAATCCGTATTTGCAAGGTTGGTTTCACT; site = the 11-nt target
Below, each entry is listed with its recorded recombinant barcode read abundance (log10).
Give the figure only, with no unit attached.

residues: GAGGCCTCCTGGGTTCTAACCTGTTGCCAAG [GAGGCCTCTTG_LTGcore_CC_RTGcore_CT] (site GAGGCCTCTTG) (LTG core: CC, RTG core: CT)
assay.value: 0.273

Return reported recombinant barcode read abundance (log10); argument: GGTGCCCATTGGGTTCTAACCTGTTGCCGAG [GGTGCCCCTCG_LTGcore_AT_RTGcore_CT] (site GGTGCCCCTCG) (LTG core: AT, RTG core: CT)
0.111

// same read-out, input: CGCGCCCACTGGGTTCTAACCTGTTGCGGAG [CGCGCCCCTCC_LTGcore_AC_RTGcore_CT] (site CGCGCCCCTCC) (LTG core: AC, RTG core: CT)
0.0345

// same read-out, input: GGGCGTGCTTGGGTTCTAACCTGTTGCCTAT [GGGCGTGCTAG_LTGcore_CT_RTGcore_AT] (site GGGCGTGCTAG) (LTG core: CT, RTG core: AT)
1.05

// same read-out, input: ACGGGACCGTGGGTTCTAACCTGTTGCAGAG [ACGGGACCTCT_LTGcore_CG_RTGcore_CT] (site ACGGGACCTCT) (LTG core: CG, RTG core: CT)
1.86
